# IC50 per entry
# Test system: U937 cells (human monocytic cell line)
# procedureSummary: BzATP-induced IL-1β secretion inhibition in PMA-differentiated U937 cells
# Format: cell-based
# assayContext: U-937, U937 cells differentiated with PMA, read-out: IL-1β production inhibition grade (IC50)

[
  {
    "structureString": "CC[C@H]1[C@@H](O)[C@@H]2[C@H](CC[C@]3(C)[C@@H]([C@H](C)CCC(=O)N[C@@H]4CCCC[C@@H]4S(=O)(=O)O)CC[C@@H]23)[C@@]2(C)CC[C@@H](O)C[C@@H]12",
    "IC50": "50 to 100 nM"
  },
  {
    "structureString": "C[C@H](CCC(=O)N[C@H](CS(=O)(=O)O)c1ccccc1)[C@H]1CC[C@H]2[C@@H]3CC[C@@H]4C[C@H](O)CC[C@]4(C)[C@H]3CC[C@]12C",
    "IC50": "50 to 100 nM"
  },
  {
    "structureString": "CC[C@H]1[C@@H](O)[C@@H]2[C@H](CC[C@]3(C)[C@@H]([C@H](C)CCC(=O)N[C@H]4CCCC[C@H]4S(=O)(=O)O)CC[C@@H]23)[C@@]2(C)CC[C@@H](O)C[C@@H]12",
    "IC50": "≥ 200 nM"
  },
  {
    "structureString": "C[C@H](CCC(=O)N[C@@H]1CCCC[C@@H]1S(=O)(=O)O)[C@H]1CC[C@H]2[C@@H]3CC[C@@H]4C[C@H](O)CC[C@]4(C)[C@H]3C[C@H](O)[C@]12C",
    "IC50": "≥ 200 nM"
  },
  {
    "structureString": "C[C@H](CCC(=O)N1CCC[C@H](S(=O)(=O)O)C1)[C@H]1CC[C@H]2[C@@H]3CC[C@@H]4C[C@H](O)CC[C@]4(C)[C@H]3CC[C@]12C",
    "IC50": "≥ 200 nM"
  }
]

The molecule "CC[C@H]1[C@@H](O)[C@@H]2[C@H](CC[C@]3(C)[C@@H]([C@H](C)CCC(=O)N(CCS(=O)(=O)O)C(C)C)CC[C@@H]23)[C@@]2(C)CC[C@@H](O)C[C@@H]12" showed IC50 equal to ≥ 200 nM

Sample "CC[C@H]1[C@@H](O)[C@@H]2[C@H](CC[C@]3(C)[C@@H]([C@H](C)CCC(=O)N(CCN(C)C)CCS(=O)(=O)O)CC[C@@H]23)[C@@]2(C)CC[C@@H](O)C[C@@H]12" ; IC50 observed: 50 to 100 nM

Just so you know, measured IC50 for "CC(C)C[C@@H](CS(=O)(=O)O)NC(=O)CC[C@@H](C)[C@H]1CC[C@H]2[C@@H]3[C@H](O)C[C@@H]4C[C@H](O)CC[C@]4(C)[C@H]3C[C@H](O)[C@]12C" came out at ≥ 200 nM

For reference, reported IC50 for "C[C@H](CCC(=O)N1CC[C@@H](S(=O)(=O)O)C1)[C@H]1CC[C@H]2[C@@H]3CC[C@@H]4CC(=O)CC[C@]4(C)[C@H]3CC[C@]12C" stands at ≥ 200 nM

Lab note: "CC(C)[C@H](CS(=O)(=O)O)NC(=O)CC[C@@H](C)[C@H]1CC[C@H]2[C@@H]3[C@H](O)C[C@@H]4C[C@H](O)CC[C@]4(C)[C@H]3C[C@H](O)[C@]12C" gave IC50 of ≥ 200 nM

// "C[C@H](CCC(=O)NCCC(=O)O)[C@H]1CC[C@H]2[C@@H]3CC[C@@H]4C[C@H](O)CC[C@]4(C)[C@H]3CC[C@]12C" : IC50 value = 50 to 100 nM

Form field IC50, entry "C[C@H](CCC(=O)N(CCS(=O)(=O)O)C1CCCCC1)[C@H]1CC[C@H]2[C@@H]3CC[C@@H]4C[C@H](O)CC[C@]4(C)[C@H]3CC[C@]12C" : < 50 nM

====

# Tested on: U937 cells (human monocytic cell line)
# procedureSummary: BzATP-induced IL-1β secretion inhibition in PMA-differentiated U937 cells
# Assay type: cell-based
# assayContext: U-937, U937 cells differentiated with PMA, read-out: IL-1β production inhibition grade (IC50)
pIC50: −log10 of the molar value.
recordedMetric: pIC50

[
  {
    "molecule": "CC[C@H]1[C@@H](O)[C@@H]2[C@H](CC[C@]3(C)[C@@H]([C@H](C)CCC(=O)N[C@H](CO)CS(=O)(=O)O)CC[C@@H]23)[C@@]2(C)CC[C@@H](O)C[C@@H]12 [NC40025]",
    "recordedMetric": "pIC50",
    "recordedMeasurement": "7.00 to 7.30"
  },
  {
    "molecule": "C[C@H](CCC(=O)N(CCS(=O)(=O)O)Cc1ccccc1)[C@H]1CC[C@H]2[C@@H]3[C@H](O)C[C@@H]4C[C@H](O)CC[C@]4(C)[C@H]3C[C@H](O)[C@]12C [NC20005]",
    "recordedMetric": "pIC50",
    "recordedMeasurement": "7.00 to 7.30"
  },
  {
    "molecule": "C[C@H](CCC(=O)N[C@H]1CCCC[C@H]1S(=O)(=O)O)[C@H]1CC[C@H]2[C@@H]3[C@H](O)C[C@@H]4C[C@H](O)CC[C@]4(C)[C@H]3C[C@H](O)[C@]12C [NC20027]",
    "recordedMetric": "pIC50",
    "recordedMeasurement": "> 7.30"
  }
]

Continue with the molecule presented below.
GET /value?item= CC[C@H]1[C@@H](O)[C@@H]2[C@H](CC[C@]3(C)[C@@H]([C@H](C)CCC(=O)N[C@@H](Cc4ccccc4)CS(=O)(=O)O)CC[C@@H]23)[C@@]2(C)CC[C@@H](O)C[C@@H]12 [NC40014] &field=pIC50 returns > 7.30

====

# Tested on: J774A.1 (Mouse BALB/c monocyte macrophage cell line) cells
# procedureSummary: LPS-induced TNF-α secretion inhibition in J774A.1 cells
# Type: cell-based
# assayContext: J774.A1, 1 μM compound, graded compared to taurodeoxycholic acid (positive control), read-out: TNF-α production inhibition grade
Entries annotated with measured inhibition at 1 µM

[
  {
    "molecule": "C[C@H](CCC(=O)N(CCO)CCS(=O)(=O)O)[C@H]1CC[C@H]2[C@@H]3CC[C@@H]4CC(=O)CC[C@]4(C)[C@H]3CC[C@]12C [NC30006]",
    "inhibition at 1 µM": "< 20%"
  }
]

The molecule CC[C@H]1[C@@H](O)[C@@H]2[C@H](CC[C@]3(C)[C@@H]([C@H](C)CCC(=O)N[C@@H](CS(=O)(=O)O)c4ccccc4)CC[C@@H]23)[C@@]2(C)CC[C@@H](O)C[C@@H]12 [NC40019] on J774A.1 (Mouse BALB/c monocyte macrophage cell line) cells: inhibition at 1 µM was < 20%

Tested system J774A.1 (Mouse BALB/c monocyte macrophage cell line) cells; inhibition at 1 µM recorded for CC[C@H]1[C@@H](O)[C@@H]2[C@H](CC[C@]3(C)[C@@H]([C@H](C)CCC(=O)N4CCC(S(=O)(=O)O)CC4)CC[C@@H]23)[C@@]2(C)CC[C@@H](O)C[C@@H]12 [NC40011] was < 20%

The reported J774A.1 (Mouse BALB/c monocyte macrophage cell line) cells inhibition at 1 µM of C[C@H](CCC(=O)N1CCC[C@H](S(=O)(=O)O)C1)[C@H]1CC[C@H]2[C@@H]3[C@H](O)C[C@@H]4C[C@H](O)CC[C@]4(C)[C@H]3C[C@H](O)[C@]12C [NC20009] is < 20%

Log: J774A.1 (Mouse BALB/c monocyte macrophage cell line) cells, molecule C[C@H](CCC(=O)N1CC(S(=O)(=O)O)C1)[C@H]1CC[C@H]2[C@@H]3CC[C@@H]4C[C@H](O)CC[C@]4(C)[C@H]3CC[C@]12C [NC10063] , inhibition at 1 µM = < 20%

Record CC[C@H]1[C@@H](O)[C@@H]2[C@H](CC[C@]3(C)[C@@H]([C@H](C)CCC(=O)N[C@H](CS(=O)(=O)O)c4ccccc4)CC[C@@H]23)[C@@]2(C)CC[C@@H](O)C[C@@H]12 [NC40018] has J774A.1 (Mouse BALB/c monocyte macrophage cell line) cells inhibition at 1 µM equal to < 20%

GET /values?item= C[C@H](CCC(=O)N(CCS(=O)(=O)O)Cc1ccccc1)[C@H]1CC[C@H]2[C@@H]3CC[C@@H]4C[C@H](O)CC[C@]4(C)[C@H]3C[C@H](O)[C@]12C [NC10022] &system= J774A.1 (Mouse BALB/c monocyte macrophage cell line) cells returns inhibition at 1 µM: 20 to 50%

Reported inhibition at 1 µM (J774A.1 (Mouse BALB/c monocyte macrophage cell line) cells) for entry C[C@H](CCC(=O)N(CCS(=O)(=O)O)C1CCOCC1)[C@H]1CC[C@H]2[C@@H]3[C@H](O)C[C@@H]4C[C@H](O)CC[C@]4(C)[C@H]3C[C@H](O)[C@]12C [NC20008] is < 20%

# CC[C@H]1[C@@H](O)[C@@H]2[C@H](CC[C@]3(C)[C@@H]([C@H](C)CCC(=O)N(CCN(C)C)CCS(=O)(=O)O)CC[C@@H]23)[C@@]2(C)CC[C@@H](O)C[C@@H]12 [NC40035] with J774A.1 (Mouse BALB/c monocyte macrophage cell line) cells: inhibition at 1 µM is < 20%

Log: J774A.1 (Mouse BALB/c monocyte macrophage cell line) cells, molecule C[C@H](CCC(=O)N(CCN(C)C)CCS(=O)(=O)O)[C@H]1CC[C@H]2[C@@H]3CC[C@@H]4CC(=O)CC[C@]4(C)[C@H]3CC[C@]12C [NC30035] , inhibition at 1 µM = > 100%

GET /values?item= C[C@H](CCC(=O)NCCC(=O)O)[C@H]1CC[C@H]2[C@@H]3[C@H](O)C[C@@H]4C[C@H](O)CC[C@]4(C)[C@H]3C[C@H](O)[C@]12C [NC20002] &system= J774A.1 (Mouse BALB/c monocyte macrophage cell line) cells returns inhibition at 1 µM: 50 to 100%

The recorded inhibition at 1 µM with J774A.1 (Mouse BALB/c monocyte macrophage cell line) cells for CC[C@H]1[C@@H](O)[C@@H]2[C@H](C[C@H](O)[C@]3(C)[C@@H]([C@H](C)CCC(=O)NC(C)(C)CS(=O)(=O)O)CC[C@@H]23)[C@@]2(C)CC[C@@H](O)C[C@@H]12 [NC50013] was < 20%

// returns inhibition at 1 µM for CC[C@H]1[C@@H](O)[C@@H]2[C@H](CC[C@]3(C)[C@@H]([C@H](C)CCC(=O)N(C)CCS(=O)(=O)O)CC[C@@H]23)[C@@]2(C)CC[C@@H](O)C[C@@H]12 [NC40004] with J774A.1 (Mouse BALB/c monocyte macrophage cell line) cells; value = < 20%

Given the molecule CC(C)[C@@H](CS(=O)(=O)O)NC(=O)CC[C@@H](C)[C@H]1CC[C@H]2[C@@H]3CC[C@@H]4CC(=O)CC[C@]4(C)[C@H]3CC[C@]12C [NC30016] and test system J774A.1 (Mouse BALB/c monocyte macrophage cell line) cells, the measured inhibition at 1 µM is 20 to 50%

Record C[C@H](CS(=O)(=O)O)NC(=O)CC[C@@H](C)[C@H]1CC[C@H]2[C@@H]3CC[C@@H]4CC(=O)CC[C@]4(C)[C@H]3CC[C@]12C [NC30029] ; system J774A.1 (Mouse BALB/c monocyte macrophage cell line) cells; inhibition at 1 µM = < 20%

Origin of measurements: patent US20240391948A1
